experiment: Fish toxicity (LC50 fish); settings: in vivo
property measured: LC50 (µg/mL)
Write it as a number; the unit µg/mL goes unstated.

Query: For the compound CCO[Si](CCCN)(OCC)OCC [DYNASYLAN AMEO, 3-amino-propyltriethoxysilane] , give its reported LC50.
Result: 934
